The measured values listed here are drawn from patent US20130137865A1.

Target: human mGlu2 receptor (Homo sapiens)
Sequence (Q14416 19-872): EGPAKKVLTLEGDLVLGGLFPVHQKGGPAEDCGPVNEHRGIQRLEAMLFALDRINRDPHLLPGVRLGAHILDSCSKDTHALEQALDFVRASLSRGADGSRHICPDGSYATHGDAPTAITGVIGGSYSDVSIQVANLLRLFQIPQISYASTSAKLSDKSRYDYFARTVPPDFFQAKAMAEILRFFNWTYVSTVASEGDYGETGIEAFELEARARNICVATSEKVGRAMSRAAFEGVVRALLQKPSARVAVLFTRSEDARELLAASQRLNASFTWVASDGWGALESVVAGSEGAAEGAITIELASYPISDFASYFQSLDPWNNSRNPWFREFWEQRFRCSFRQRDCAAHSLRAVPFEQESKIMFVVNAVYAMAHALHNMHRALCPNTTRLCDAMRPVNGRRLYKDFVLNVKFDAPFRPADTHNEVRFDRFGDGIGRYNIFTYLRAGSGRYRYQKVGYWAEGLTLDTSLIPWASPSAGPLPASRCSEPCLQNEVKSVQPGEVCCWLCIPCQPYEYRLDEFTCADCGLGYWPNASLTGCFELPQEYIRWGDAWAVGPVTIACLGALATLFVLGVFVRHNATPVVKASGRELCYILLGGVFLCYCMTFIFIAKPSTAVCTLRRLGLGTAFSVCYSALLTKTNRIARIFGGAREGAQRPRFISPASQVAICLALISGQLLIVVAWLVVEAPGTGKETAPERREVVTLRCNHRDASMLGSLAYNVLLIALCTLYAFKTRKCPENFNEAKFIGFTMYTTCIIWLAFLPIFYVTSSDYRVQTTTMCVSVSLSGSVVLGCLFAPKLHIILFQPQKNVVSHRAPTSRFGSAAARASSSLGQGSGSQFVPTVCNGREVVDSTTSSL
Test: [35S]GTPγS binding test (2), membranes of CHO cells stably expressing human mGlu2
Settings: inhibition of glutamic acid (20 μM)-stimulated specific [35S]GTPγS binding
metric.name: IC50 (µM)

• CNS(=O)(=O)c1cccc(-c2noc(-c3cnn(C)c3COc3ccccn3)n2)c1 = 0.0132

I. Cn1ncc(-c2nc(-c3cncc(S(C)(=O)=O)c3)no2)c1COc1ccc(C(F)(F)F)cn1
II. Cn1ncc(-c2nc(-c3cccc(S(N)(=O)=O)c3)no2)c1COc1ccc(F)cn1
**Query** Choose between I and II : whose measured IC50 value is numerically larger? Could you answer with the label of the item you picked?
**Result** I
(I: 0.0171 µM, II: 0.0103 µM)
